test system: Plasmodium falciparum; assay: Antimalarial activity against sPlasmodium falciparum VS/1 assessed as parasite growth inhibition after 48 hrs by standard growth inhibition assay; type: functional; details: Plasmodium falciparum, VS/1, 48 h
TEST READOUT: log10(IC50) (log10 of the value in nM)
Units before log transform: nM; reported quantity: IC50; transform: log10.

Note log10(IC50) for the compound shown: O=C(CCCCCCC(=O)NC12CC3CC(CC(C3)C1)C2)NO
3.91

Note log10(IC50) for the compound shown: O=C(CCCCCC(=O)Nc1cccc2cccnc12)NS
4.00

Note log10(IC50) for the compound shown: N[C@@H](Cc1ccccc1)C(=O)Nc1ccccc1-c1ccc(NC(=O)CCCCCCC(=O)NO)cc1
2.24

Note log10(IC50) for the compound shown: O=C(CCCCCCC(=O)Nc1ccc(-c2ccccc2)cc1)NO
2.06

Note log10(IC50) for the compound shown: O=C(CCCCCCC(=O)Nc1nc(-c2ccccc2)cs1)NO
0.78
